// provenance: the domain aggregation screens of Martell et al. (2025)

# test_summary: soluble fraction after stress (log2 fold change); higher = more stays soluble; pooled small domains, quantitative proteomics
# conditions_used: stress: pH 4
The following sequences are shown together with reported soluble fraction (log2) values.
value_type: soluble fraction (log2)

# chain, result_value
rows = [
    ("HMTHEAEDLNALRMMVRDPIFSSDEPDLQQLRGAVAHAPQFVDRFKELYNDYQRLAEFVQNSL", -1),
    ("HMKVIAEESYRILVDAIEKLPPQMKSIMQLALEGKSNPEIAETLNISGETVHSQKKIAYRKLRVYLKD", -0.144),
    ("HMRRELDSEHKRQEILFAAKRLLLAEGYDATSMSRLAKEAGVAPNTLYWYFKDKDELLIAILDELVAE", -1.09),
    ("HMPRELKVRDVSHQHAGHAGWREGGETHFEVDMKADVFAGTSRVAAHRMVNKVLANELASRVHALQLNLS", -0.308),
    ("HMKVGEIIKAKREELKIPLVNFAKELDISQGYLSQIENGIKTNPNLDIILKIIHRLDIDLAMLL", -1.02),
    ("HMAISEEEATNLALERVPGASAQDLRIQLEFDDGVQKYEGDIIYDGKEYDFEIDANTGTFLEWSE", 0.22),
    ("HMSSWMTKDGKIKPISKWAGVPMTSQQQADYAAGKVVELTNIPDKQGQLNTVYLKFNPEKQRPTTSLNDPR", 0.22),
    ("HMFEYDEEEYEKLGPNADLTIKSMTDWGQSLVRKGVWSESDFEEFKIMGGTAQGLRALQKVRSYY", -1.25),
    ("HMRSFADEGTVEEWIKQAIRENEAAVADYRKGKETAVKFLMGQVMRLSKGEANPADLEDKIKAKLD", 0.025),
    ("HMNEFAYLIKISPEHNNNRYYRMVAEGDNFRIEMGRIGASPVQMKRPMYLWNETYQKKLQEGYTDRTSYTS", -0.2),
    ("HMPSKTFYNLSQEKQQKIIDASEKEFSNNLYQDVSLNQIIKNSNISRGSFYMYFTDKEDLYFYLLNEY", "≥ 0.43"),
    ("HMDGKTALQEIVASSGWSPPEYKVSESGPDHDKDFVAYAIVNGVAYPEGHGKSKREAEQVAARIAFEALSK", -0.00195),
    ("HMSDRFLDQEGVALSTLRPSGTVVLDSGEHLDVVTRGEFIEQGERVKVIKAESTWYVVEQIN", -0.317),
    ("HMNSTEQQTERFLATLTSLGGNAGNQRLQEALGWQGSTYQRIKQHLLDEGRIRTGRGRGGSVALSEATAT", "≥ 0.43"),
    ("HMKKERITWDERLERFAKYITENESLPYPSSKEHAWFEENKALYDAGELESVRAQSFSFLLKILRRMNLI", -0.449),
    ("HMNREMLVHAIGQLKEKYASALELKYWHGFTEREIAAFLNISEKAANSRLVRGRVMLRKLLE", 0.139),
    ("HMGKVLIYKPNMSVSDVAIRLGISNAEIIKRLMGLGVMTSINQTIDRDTIELVAMDLGFSIEN", -0.581),
    ("HMVTDTGEIEAIIDRVISENPDSVSDFKNGKERALKFLMGQAMKESKGKANPQIVNELLLKKL", 0.0343),
    ("HMNKNQGVTTTNLNFRKSASTSSLVLYTIPKNTTLDILDKLPSGWYKVKYKGLTGYVSGSYV", 0.22),
    ("HMDIPGITAVKPQAAFYMFPKIDVKKFNIVNDEKFALDLLQDKKILIVQGSGFNWKQPDHFRVV", 0.115),
    ("HMFPASQPVPTDLNQIVRAGLEVFSGRLEGIDVRVSLEPELPRVNVDPEHFKRIVVNLVDNAAEAMQNS", -0.0189),
    ("HMPNYIDAISALLTLKGVGDRKHASTMANILNLQYNSAKQKLDGKRGITLDEVKKVFQYFNEPF", -0.76),
    ("HMSVDEVEALYLKIAEDRLEGKLPDKVSESDLMRRYGLTKAQLGAILQRIVHEGWIERTPGHGWRFLPIL", -0.368),
    ("HMMQEIKLEVINNEELRIDNYINLAGIGLSRSYIQKLIKDGVILVNGKEVKSSYKVSLGDIISVQIPDPG", -0.209),
    ("HMELRIREILESKDIKVSSLAETVGITRANMSNIVNGKSTPSLETLEKIANALGVDITELFA", -0.573),
    ("HMDEWFPVNDDYKFMVGDEVRTPDGLVKVVATHNDSATFYGKIITPIHDDVLKGETYEYRSYEAQVLA", -1.26),
    ("HMAQRFDLGDKLNPQSSEFEYLGTSSRTGVSTYRYKNVPTQLFFGRQIGDIVVGVRRGMITLTIYNL", 0.146),
    ("HMKGKITTNWVSLTSDLGWLRSELYSSGSVLEERISNEGLIELHLENFQNDLIKLLEVEGFDLIKE", -1.73),
    ("HMIGDYALILNIKGGSDWYLGNRVELLFTDGTSKIVTTDKDYNAKKDMVPTQIVTYKVNDNGEYSLKALPT", -1.2),
    ("HMTDVGLEAAKAAALKHAGLSADQVTGLTAKLDWDDGQRVYEVDFWQGSTEYEYEINADGTVRQYESEAH", -0.469),
    ("HMLMKILTDALEKMSPEELKELAEATGVKNTSSITPETMVGVFQAVFRVGGFKSYQLTLIIVNAVLKA", -0.398),
    ("HMSKEIQNILASLPSVDVLLKQIDPIYPHGKAKEATQQVVARLRESVVDGTRKTVIDQKEVIAMIHKQLEE", -0.149),
    ("HMNLSSETLSEMEARIGQMGVVELQDRRAYLLQEQEGTQNPSRLKEIADELSAIQKALVALV", -0.401),
]
